The values you see were collected from patent US20140005163A1.

# ASSAY_TEXT: Solubility in the organic solvents PEG400, propyleneglycol and ethanol
# Format: physicochemical
# MEASUREMENT_CONTEXT: propylene glycol, organic solvent or mixture; excipient Propyleneglycol
I'd appreciate it if you could supply solubility values for the items below.

Some entries whose results are on file:
RECORD_SMILES | REPORTED_MEASUREMENT
Cc1ncc(-c2ccc3ncc4c(c3c2)n(-c2cn(C)nc2C)c(=O)n4C)cc1OC(C)C | > 20 mg/mL
Cc1nn(C)cc1-n1c(=O)n(C)c2cnc3ccc(-c4cncc(OC(C)C)c4)cc3c21 | > 24 mg/mL
COCc1ncc(-c2ccc3ncc4c(c3c2)n(-c2cn(C)nc2C)c(=O)n4C)cc1OC(C)C | > 19 mg/mL

Note: attention shifts to another entry.
Identify measured solubility associated with "Cc1nn(C(C)C)cc1-n1c(=O)n(C)c2cnc3ccc(-c4ccc(N(C)C)nc4)cc3c21"
> 20 mg/mL

---

# System: PKB Ser473 phosphorylation in Rat1-myr-HA-p110 alpha cells
# ASSAY_TEXT: Reverse protein array assay, PKB Ser473 phosphorylation in Rat1-myr-p110 alpha cells
# Type: cell-based
# MEASUREMENT_CONTEXT: 0.5 h, pAkt Ser473, 30 minutes compound incubation, read-out: p-PKB IC50
MEASURED_ENDPOINT: log10 of IC50 (log10 of the value in nM)
Values below are the log10 of the recorded IC50, with nM as the unit.

These solved cases illustrate the format of a correct answer.
COMPOUND | MEASURED_ENDPOINT | REPORTED_MEASUREMENT
[2H]C([2H])([2H])OCc1ncc(-c2ccc3ncc4c(c3c2)n(-c2cn(C)nc2Cl)c(=O)n4C)cc1OC [Example 199] | log10 of IC50 | 1.36
Cc1nn(C)cc1-n1c(=O)n(C)c2cnc3ccc(-c4cnc5c(c4)C(C)(C)C(=O)N5C)cc3c21 [Example 233] | log10 of IC50 | 1.41
Cc1nn(C)c(C)c1-n1c(=O)n(C)c2cnc3ccc(-c4cnc(N)c(CO)c4)cc3c21 [Example 169.2] | log10 of IC50 | 2.66
COc1ccc(-c2ccc3ncc4c(c3c2)n(-c2cnn(C)c2C)c(=O)n4C)cc1OC [Example 1.1] | log10 of IC50 | 1.34

Next item in the queue.
Identify the reported log10 of IC50 for the following entry. CCOc1ccc(-c2ccc3ncc4c(c3c2)n(-c2c(C)nn(C)c2C)c(=O)n4C)cn1 [Example 3.3]
1.70

---

# MEASUREMENT_TARGET: PI3K delta (Homo sapiens)
# Construct: for the full-length p110-d subunit are generated and fused by overlapping PCR; p85(iSH2) fusion partner (see partner chain) (N); His tag (C); Tn5 (Trichoplusia ni) or TiniPro insect cells
# Sequence (O00329 with tags, fused parts or gaps limits assumed): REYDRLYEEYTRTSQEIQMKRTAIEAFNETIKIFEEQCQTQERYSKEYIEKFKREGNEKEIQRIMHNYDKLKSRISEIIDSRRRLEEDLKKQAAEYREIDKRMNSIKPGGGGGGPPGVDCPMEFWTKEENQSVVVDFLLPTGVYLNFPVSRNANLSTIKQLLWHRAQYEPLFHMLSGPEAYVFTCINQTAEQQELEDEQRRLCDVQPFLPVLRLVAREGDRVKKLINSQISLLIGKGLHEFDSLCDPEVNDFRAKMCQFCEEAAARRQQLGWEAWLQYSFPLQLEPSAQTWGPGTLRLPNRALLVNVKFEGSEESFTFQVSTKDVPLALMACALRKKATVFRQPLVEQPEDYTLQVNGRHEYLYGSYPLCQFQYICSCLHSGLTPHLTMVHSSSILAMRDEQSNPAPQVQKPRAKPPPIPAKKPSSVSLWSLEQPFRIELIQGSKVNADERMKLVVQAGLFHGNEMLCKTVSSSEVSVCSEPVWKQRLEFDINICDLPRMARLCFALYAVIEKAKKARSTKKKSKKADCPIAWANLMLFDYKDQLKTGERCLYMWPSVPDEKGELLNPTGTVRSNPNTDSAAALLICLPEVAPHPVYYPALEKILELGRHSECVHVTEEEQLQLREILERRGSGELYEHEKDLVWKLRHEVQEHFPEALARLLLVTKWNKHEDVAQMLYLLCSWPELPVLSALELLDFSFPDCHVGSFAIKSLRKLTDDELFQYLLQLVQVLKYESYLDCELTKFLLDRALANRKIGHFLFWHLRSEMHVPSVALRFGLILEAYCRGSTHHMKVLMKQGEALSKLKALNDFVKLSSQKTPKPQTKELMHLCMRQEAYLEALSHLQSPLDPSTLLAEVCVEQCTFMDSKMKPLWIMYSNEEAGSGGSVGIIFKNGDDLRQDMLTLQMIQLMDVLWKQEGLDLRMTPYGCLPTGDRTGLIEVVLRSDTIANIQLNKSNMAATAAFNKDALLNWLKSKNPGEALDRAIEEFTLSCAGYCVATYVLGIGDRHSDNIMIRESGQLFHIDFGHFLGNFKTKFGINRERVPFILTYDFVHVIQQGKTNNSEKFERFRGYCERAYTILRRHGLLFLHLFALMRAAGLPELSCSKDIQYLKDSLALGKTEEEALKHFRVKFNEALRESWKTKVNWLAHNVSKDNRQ
# ASSAY_TEXT: PI3K delta kinase assay (Kinase-Glo luminescence)
MEASURED_ENDPOINT: IC50 (nM)
Numbers only, in nM.

RECORD_SMILES | MEASUREMENT_TARGET | RESULT_UNITS | IC50
CCNc1cc(-c2ccc3ncc4c(c3c2)n(-c2c(C)nn(CCOC)c2C)c(=O)n4C)cnc1OC | PI3K delta (Homo sapiens) | nM | 26

State the recorded IC50 for every item in the following list.
1. CCOc1ccc(-c2ccc3ncc4c(c3c2)n(-c2cn(CC)nc2C)c(=O)n4C)cc1OCC
2. Cc1nn(C(C)C)cc1-n1c(=O)n(C)c2cnc3ccc(-c4cncc(C(O)(CF)CF)c4)cc3c21
3. CNc1ncc(-c2ccc3ncc4c(c3c2)n(-c2cn(C)nc2C)c(=O)n4C)cc1F
4. Cc1cc(-n2c(=O)n(C)c3cnc4ccc(-c5cccnc5F)cc4c32)n(C)n1
5. Cc1nn(C)cc1-n1c(=O)n(C)c2cnc3ccc(-c4ccc5c(c4)CC(=O)N5)cc3c21

[17, 13, 98, 737, 106]

Output measured IC50 for this item: "CCn1cc(-n2c(=O)n(C)c3cnc4ccc(-c5ccc(CO)nc5)cc4c32)c(C)n1"
25

---

Record: pIC50 reported on PI3K gamma (Homo sapiens).
Sequence (P48736 144-1102 limits assumed): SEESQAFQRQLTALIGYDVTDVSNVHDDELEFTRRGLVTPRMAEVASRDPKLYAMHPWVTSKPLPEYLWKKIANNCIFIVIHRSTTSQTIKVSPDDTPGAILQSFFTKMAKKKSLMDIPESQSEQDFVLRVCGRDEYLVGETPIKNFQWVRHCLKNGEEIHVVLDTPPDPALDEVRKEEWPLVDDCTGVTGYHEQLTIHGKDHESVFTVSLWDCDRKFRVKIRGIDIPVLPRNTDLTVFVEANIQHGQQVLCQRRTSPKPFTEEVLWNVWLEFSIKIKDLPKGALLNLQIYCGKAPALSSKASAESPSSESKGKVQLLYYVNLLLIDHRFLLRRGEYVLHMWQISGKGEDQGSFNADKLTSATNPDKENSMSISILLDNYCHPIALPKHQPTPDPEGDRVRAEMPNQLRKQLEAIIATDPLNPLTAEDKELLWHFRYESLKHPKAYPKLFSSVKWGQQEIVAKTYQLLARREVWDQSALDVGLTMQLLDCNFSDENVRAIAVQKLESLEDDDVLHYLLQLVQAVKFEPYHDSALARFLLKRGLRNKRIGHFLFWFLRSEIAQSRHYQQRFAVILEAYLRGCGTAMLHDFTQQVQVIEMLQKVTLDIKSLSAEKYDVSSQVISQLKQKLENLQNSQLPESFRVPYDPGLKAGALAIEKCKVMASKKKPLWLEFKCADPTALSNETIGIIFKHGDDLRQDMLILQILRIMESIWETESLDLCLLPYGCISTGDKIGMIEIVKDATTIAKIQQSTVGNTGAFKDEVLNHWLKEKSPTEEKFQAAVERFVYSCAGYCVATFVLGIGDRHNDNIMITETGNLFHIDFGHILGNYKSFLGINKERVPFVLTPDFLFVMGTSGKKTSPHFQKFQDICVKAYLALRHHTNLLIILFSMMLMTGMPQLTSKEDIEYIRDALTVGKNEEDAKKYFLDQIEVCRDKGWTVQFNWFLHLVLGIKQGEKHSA
Give bare numbers, as −log10 of the molar value.

Example entries begin here.
RECORD_SMILES | MEASURED_ENDPOINT | REPORTED_MEASUREMENT
Cc1nn(C)cc1-n1c(=O)n(C)c2cnc3ccc(-c4ccc5c(c4)CCN5C)cc3c21 | pIC50 | 6.48
CCn1cc(-n2c(=O)n(C)c3cnc4ccc(-c5ccc(OCCOC)c(OC)c5)cc4c32)c(C)n1 | pIC50 | 6.82
CCOc1ccc(-c2ccc3ncc4c(c3c2)n(-c2cnn(C)c2C)c(=O)n4C)cn1 | pIC50 | 6.74
Cc1nn(C)cc1-n1c(=O)n(C)c2cnc3ccc(-c4cncc(NS(C)(=O)=O)c4)cc3c21 | pIC50 | 6.94
CCOc1ccc(-c2ccc3ncc4c(c3c2)n(-c2cn(CC)nc2C)c(=O)n4C)cc1OC | pIC50 | 7.16

Please state, for each entry, its recorded pIC50.
1. Cc1nn(C)cc1-n1c(=O)n(C)c2cnc3ccc(-c4cccc(S(C)(=O)=O)c4)cc3c21
2. Cc1nn(C)cc1-n1c(=O)n(C)c2cnc3ccc(-c4ccc(OCCOCc5ccccc5)nc4)cc3c21
3. Cc1nn(C)cc1-n1c(=O)n(C)c2cnc3ccc(-c4ccc(C(N)=O)nc4)cc3c21
4. Cc1nn(C(C)C)cc1-n1c(=O)n(C)c2cnc3ccc(-c4ccc(N5CCC5)nc4)cc3c21
5. CCn1cc(-n2c(=O)n(C)c3cnc4ccc(-c5cncc(OC(C)C)c5)cc4c32)c(C)n1
6. COc1ccc(-c2ccc3ncc4[nH]c(=O)n(-c5cc(C)nn5C)c4c3n2)cc1OC

[7.08, 6.01, 6.67, 6.64, 6.60, 7.35]

I'm hoping you can list pIC50 for every compound here, please.
1. Cc1nn(C)c(C)c1-n1c(=O)n(C)c2cnc3ccc(-c4ccccc4)cc3c21
2. Cc1nn(C)cc1-n1c(=O)n(C)c2cnc3ccc(-c4cccc(N(C)S(C)(=O)=O)c4)cc3c21
3. CCOc1ncc(-c2ccc3ncc4c(c3c2)n(-c2cn(C)nc2C)c(=O)n4C)cc1N(C)C(C)=O

1. 6.47
2. 6.65
3. 6.09

Hi there! I need pIC50 for each item below, if you can.
1. COCCn1c(=O)n(C)c2ncc(-c3ccc4ncc5c(c4c3)n(-c3cn(C)nc3C)c(=O)n5C)cc21
2. Cc1nn(C)cc1-n1c(=O)n(C)c2cnc3ccc(-c4cccc(S(=O)(=O)N(C)C)c4)cc3c21
3. Cc1nn(C)cc1-n1c(=O)n(C)c2cnc3ccc(-c4ccc(N(C)C)nc4)cc3c21
4. CNC(=O)c1ccc(-c2ccc3ncc4c(c3c2)n(-c2cn(C(C)C)nc2C)c(=O)n4C)cn1
5. CCOc1cncc(-c2ccc3ncc4c(c3c2)n(-c2cn(C)nc2C)c(=O)n4C)c1
6. COc1ccc(-c2ccc3ncc4c(c3c2)n(-c2c(C)cnn2C)c(=O)n4C)cn1
7. Cc1nn(C)cc1-n1c(=O)n(C)c2cnc3ccc(-c4cncc(N)c4)cc3c21
8. Cc1nn(C)cc1-n1c(=O)n(C)c2cnc3ccc(-c4cnc5c(ccn5C)c4)cc3c21

1: 6.19; 2: 6.72; 3: 6.53; 4: 6.49; 5: 6.91; 6: 6.85; 7: 6.55; 8: 6.63

Return reported pIC50 values for all items listed beneath this line.
1. CCOc1cc(-c2ccc3ncc4c(c3c2)n(-c2cn(C)nc2C)c(=O)n4C)ccc1OC
2. Cc1nn(C)cc1-n1c(=O)n(C)c2cnc3ccc(-c4cncc(S(C)(=O)=O)c4)cc3c21
3. CCOc1ccc(-c2ccc3ncc4c(c3c2)n(-c2cn(CC)nc2C)c(=O)n4C)cn1
4. CNc1ccc(-c2ccc3ncc4c(c3c2)n(-c2cn(C)nc2C)c(=O)n4C)cn1

1: 6.71; 2: 7.14; 3: 6.45; 4: 6.55

Respectfully, I request pIC50 for each entry included below.
1. COc1ccc(-c2ccc3ncc4c(c3n2)n(-c2cn(C)nc2C)c(=O)n4C)cc1OC
2. COc1ccc(-c2ccc3ncc4c(c3c2)n(-c2c(C)nn(C)c2C)c(=O)n4C)cn1
3. Cc1ccc(-c2ccc3ncc4c(c3c2)n(-c2cn(C)nc2C)c(=O)n4C)cn1
4. COc1ncc(-c2ccc3ncc4c(c3c2)n(-c2cn(C)nc2C)c(=O)n4C)cc1N
5. COc1ncc(-c2ccc3ncc4c(c3c2)n(-c2cn(C)nc2C)c(=O)n4C)cc1[N+](=O)[O-]

1. 6.73
2. 6.70
3. 6.72
4. 6.92
5. 6.45

---

# ASSAY_TEXT: Solubility at pH 6.8
# Format: physicochemical
# MEASUREMENT_CONTEXT: pH 6.8, aqueous buffer, thermodynamic from solid; read-out: solubility
MEASURED_ENDPOINT: log10(solubility) (log10 of the value in µg/mL)
Please note: log10 values; quantity solubility; unit µg/mL.

COMPOUND | log10(solubility)
CCNc1cc(-c2ccc3ncc4c(c3c2)n(-c2c(C)nn(C)c2C)c(=O)n4C)cnc1Cl [Example 153.1] | 0.78

I would be grateful if you could provide log10(solubility) for each of the following entries.
1. CCNc1cc(-c2ccc3ncc4c(c3c2)n(-c2cn(C)nc2C)c(=O)n4C)cnc1C [Example 87.1]
2. Cc1nn(C)cc1-n1c(=O)n(C)c2cnc3ccc(-c4cnc5c(c4)nnn5C)cc3c21 [Example 72]

1. 2.61
2. 1.57

For every item in the list below, what is its measured log10(solubility)?
1. Cc1nn(C)cc1-n1c(=O)n(C)c2cnc3ccc(-c4cncc(C(C)O)c4)cc3c21 (racemic) [Example 217]
2. Cc1nn(C)cc1-n1c(=O)n(C)c2cnc3ccc(-c4ccccc4)cc3c21 [Example 37.1]
3. Cc1nn(C(C)C)cc1-n1c(=O)n(C)c2cnc3ccc(-c4cncc(N)c4)cc3c21 [Example 45.3]
4. Cn1cc(-n2c(=O)n(C)c3cnc4ccc(-c5cnc(N)c(CO)c5)cc4c32)c(Cl)n1 [Example 169.3]
5. CCOc1cc(-c2ccc3ncc4c(c3c2)n(-c2cn(C(C)C)nc2C)c(=O)n4C)cnc1COC [Example 197.2]

[2.62, 0.48, 0.60, 1.00, 2.35]
